The reported numbers originate from paper PMC8389907.

- Test system: MCF7 cells
- EXPERIMENT_DESCRIPTION: MTT cell viability assay, MCF7
- Assay type: cell-based
- COND: Homo sapiens, 72 h treatment, MTT, read-out: IC50 MCF7
QUANTITY: pIC50
One number for each entry, as −log10 of the molar value.

[
  {
    "COMPOUND": "O=C(O)c1cn(C2CC2)c2cc(N3CCN(CCCNc4ccc([N+](=O)[O-])c(C(F)(F)F)c4)CC3)c(F)cc2c1=O [Compound 7b]",
    "READOUT_VALUE": 5.28
  }
]

Record pIC50 for all entries; do not skip any.
1. COC(=O)c1cn(C2CC2)c2cc(N3CCN(CCCNc4ccc([N+](=O)[O-])c(C(F)(F)F)c4)CC3)c(F)cc2c1=O [Compound 6b]
2. COC(=O)c1cn(C2CC2)c2cc(N3CCN(CCNc4ccc([N+](=O)[O-])c(C(F)(F)F)c4)CC3)c(F)cc2c1=O [Compound 6a]

## Output
1. 4.92
2. 4.77

====

- Tested on: DU145 cells
- EXPERIMENT_DESCRIPTION: MTT cell viability assay, DU145
- Type: cell-based
- COND: Homo sapiens, DU-145; 72 h treatment, MTT; read-out: IC50 DU145
Exercise: state measured IC50 for each of the compounds provided.
Give bare numbers, in µM.

// each listed compound needs a value for IC50
1. CCn1cc(C(=O)O)c(=O)c2cc(F)c(N3CCNCC3)cc21 [Nor, Norfloxacin, reference compound]
2. CCn1cc(C(=O)O)c(=O)c2cc(F)c(N3CCN(CCCNc4ccc([N+](=O)[O-])c(C(F)(F)F)c4)CC3)cc21

## Output
[12, 1.56]

## Input Which value of IC50 has been reported for O=C(O)c1cn(C2CC2)c2cc(N3CCNCC3)c(F)cc2c1=O [Cip, Ciprofloxacin, reference compound] in the records?
## Output 24.9

====

- Test system: PC3 cells
- EXPERIMENT_DESCRIPTION: MTT cell viability assay, PC3
- Format: cell-based
- COND: Homo sapiens, PC-3; supplement csv, unit inferred; read-out: PC3 IC50
- From the text: The cell lines DU145 (HTB-81, human prostate carcinoma), PC3 (CRL-1435, human prostate adenocarcinoma), MCF7 (HTB-22, human breast adenocarcinoma), MDA-MB231 (HTB-26, human breast adenocarcinoma), and HCT116 (CCL-247, human colorectal carcinoma) were obtained from ATCC (American Type Culture Collection, Manassas, VA, USA); WH1 human fibroblasts were kindly provided by Dr. Guven.[51] […]
QUANTITY: IC50 (µM)
One number for each entry, in µM.

Sample answers from the record:
[
  {
    "MOLECULAR_STRING": "CCn1cc(C(=O)OC)c(=O)c2cc(F)c(N3CCN(CCNc4ccc([N+](=O)[O-])c(C(F)(F)F)c4)CC3)cc21",
    "READOUT_VALUE": 9.26
  },
  {
    "MOLECULAR_STRING": "COC(=O)c1cn(C2CC2)c2cc(N3CCN(CCNc4ccc([N+](=O)[O-])c(C(F)(F)F)c4)CC3)c(F)cc2c1=O",
    "READOUT_VALUE": 6.72
  },
  {
    "MOLECULAR_STRING": "COC(=O)c1cn(C2CC2)c2cc(N3CCN(c4ccc([N+](=O)[O-])c(C(F)(F)F)c4)CC3)c(F)cc2c1=O",
    "READOUT_VALUE": 15.9
  },
  {
    "MOLECULAR_STRING": "O=C(O)c1cn(C2CC2)c2cc(N3CCN(c4ccc([N+](=O)[O-])c(C(F)(F)F)c4)CC3)c(F)cc2c1=O",
    "READOUT_VALUE": 6.45
  }
]

Now look at this one.
## Input Request the reported IC50 associated with "COC(=O)c1cn(C2CC2)c2cc(N3CCN(CCCNc4ccc([N+](=O)[O-])c(C(F)(F)F)c4)CC3)c(F)cc2c1=O"
## Output 3.17

====

Would you mind telling me the reported pIC50 of each entry?
- Tested on: WH1 human fibroblasts
- EXPERIMENT_DESCRIPTION: MTT cell viability assay, WH1 fibroblasts
- Type: cell-based
- COND: Fibroblast, 72 h treatment
Answers are plain numbers, as −log10 of the molar value.

Some compounds with recorded pIC50:
[
  {
    "COMPOUND": "O=C(O)c1cn(C2CC2)c2cc(N3CCN(CCCNc4ccc([N+](=O)[O-])c(C(F)(F)F)c4)CC3)c(F)cc2c1=O",
    "QUANTITY": "pIC50",
    "READOUT_VALUE": 5.15
  },
  {
    "COMPOUND": "CCn1cc(C(=O)O)c(=O)c2cc(F)c(N3CCN(CCNc4ccc([N+](=O)[O-])c(C(F)(F)F)c4)CC3)cc21",
    "QUANTITY": "pIC50",
    "READOUT_VALUE": 5.45
  }
]

I would be grateful if you could provide pIC50 for each of the following entries.
1. COC(=O)c1cn(C2CC2)c2cc(N3CCN(CCCNc4ccc([N+](=O)[O-])c(C(F)(F)F)c4)CC3)c(F)cc2c1=O
2. CCn1cc(C(=O)OC)c(=O)c2cc(F)c(N3CCN(CCCNc4ccc([N+](=O)[O-])c(C(F)(F)F)c4)CC3)cc21
3. CCn1cc(C(=O)OC)c(=O)c2cc(F)c(N3CCN(c4ccc([N+](=O)[O-])c(C(F)(F)F)c4)CC3)cc21

## Output
1. 4.88
2. 5.01
3. 5.05

====

- Test system: MCF7 cells
- EXPERIMENT_DESCRIPTION: MTT cell viability assay, MCF7
- Type: cell-based
- COND: Homo sapiens, 72 h treatment, MTT, read-out: IC50 MCF7
- Excerpt: The cell lines DU145 (HTB-81, human prostate carcinoma), PC3 (CRL-1435, human prostate adenocarcinoma), MCF7 (HTB-22, human breast adenocarcinoma), MDA-MB231 (HTB-26, human breast adenocarcinoma), and HCT116 (CCL-247, human colorectal carcinoma) were obtained from ATCC (American Type Culture Collection, Manassas, VA, USA); WH1 human fibroblasts were kindly provided by Dr. Guven.[51] […]
QUANTITY: pIC50
One number for each entry, as −log10 of the molar value.

Some solved entries appear below for comparison.
[
  {
    "COMPOUND": "O=C(O)c1cn(C2CC2)c2cc(N3CCN(c4ccc([N+](=O)[O-])c(C(F)(F)F)c4)CC3)c(F)cc2c1=O [Compound 1a]",
    "pIC50": 5.06
  },
  {
    "COMPOUND": "O=C(O)c1cn(C2CC2)c2cc(N3CCNCC3)c(F)cc2c1=O [Cip, Ciprofloxacin, reference compound]",
    "pIC50": 5.05
  },
  {
    "COMPOUND": "CCn1cc(C(=O)O)c(=O)c2cc(F)c(N3CCN(CCCNc4ccc([N+](=O)[O-])c(C(F)(F)F)c4)CC3)cc21 [Compound 7d]",
    "pIC50": 5.23
  },
  {
    "COMPOUND": "CCn1cc(C(=O)OC)c(=O)c2cc(F)c(N3CCN(c4ccc([N+](=O)[O-])c(C(F)(F)F)c4)CC3)cc21 [Compound 3b]",
    "pIC50": 4.93
  },
  {
    "COMPOUND": "O=C(O)c1cn(C2CC2)c2cc(N3CCN(CCNc4ccc([N+](=O)[O-])c(C(F)(F)F)c4)CC3)c(F)cc2c1=O [Compound 7a]",
    "pIC50": 5.51
  }
]

Give measured pIC50 for every item shown.
1. CCn1cc(C(=O)O)c(=O)c2cc(F)c(N3CCNCC3)cc21 [Nor, Norfloxacin, reference compound]
2. COC(=O)c1cn(C2CC2)c2cc(N3CCN(c4ccc([N+](=O)[O-])c(C(F)(F)F)c4)CC3)c(F)cc2c1=O [Compound 3a]
3. CCn1cc(C(=O)OC)c(=O)c2cc(F)c(N3CCN(CCNc4ccc([N+](=O)[O-])c(C(F)(F)F)c4)CC3)cc21 [Compound 6c]
4. CCn1cc(C(=O)OC)c(=O)c2cc(F)c(N3CCN(CCCNc4ccc([N+](=O)[O-])c(C(F)(F)F)c4)CC3)cc21 [Compound 6d]
5. CCn1cc(C(=O)O)c(=O)c2cc(F)c(N3CCN(CCNc4ccc([N+](=O)[O-])c(C(F)(F)F)c4)CC3)cc21 [Compound 7c]

## Output
[4.71, 4.81, 4.82, 4.98, 5.64]

====

- System: HCT116 cells
- EXPERIMENT_DESCRIPTION: MTT cell viability assay, HCT116
- Format: cell-based
- COND: Homo sapiens, HCT-116; supplement csv, unit inferred; read-out: HCT116 IC50
pIC50: −log10 of the molar value.
Parameter threshold = 5. Response is YES when pIC50 meets or exceeds it, else NO.

Completed entries (count: 5):
[
  {
    "COMPOUND": "CCn1cc(C(=O)O)c(=O)c2cc(F)c(N3CCN(CCNc4ccc([N+](=O)[O-])c(C(F)(F)F)c4)CC3)cc21 [Compound 7c]",
    "GROUP_LABEL": "YES"
  },
  {
    "COMPOUND": "O=C(O)c1cn(C2CC2)c2cc(N3CCN(CCNc4ccc([N+](=O)[O-])c(C(F)(F)F)c4)CC3)c(F)cc2c1=O [Compound 7a]",
    "GROUP_LABEL": "YES"
  },
  {
    "COMPOUND": "COC(=O)c1cn(C2CC2)c2cc(N3CCN(CCCNc4ccc([N+](=O)[O-])c(C(F)(F)F)c4)CC3)c(F)cc2c1=O [Compound 6b]",
    "GROUP_LABEL": "YES"
  },
  {
    "COMPOUND": "COC(=O)c1cn(C2CC2)c2cc(N3CCN(c4ccc([N+](=O)[O-])c(C(F)(F)F)c4)CC3)c(F)cc2c1=O [Compound 3a]",
    "GROUP_LABEL": "YES"
  },
  {
    "COMPOUND": "CCn1cc(C(=O)O)c(=O)c2cc(F)c(N3CCN(CCCNc4ccc([N+](=O)[O-])c(C(F)(F)F)c4)CC3)cc21 [Compound 7d]",
    "GROUP_LABEL": "YES"
  }
]

## Input Is pIC50 at least 5? Consider COC(=O)c1cn(C2CC2)c2cc(N3CCN(CCNc4ccc([N+](=O)[O-])c(C(F)(F)F)c4)CC3)c(F)cc2c1=O [Compound 6a]
## Output NO
